Tested on: NCI-H1963 (Small Cell Lung Carcinoma)
Test: combination Emax (second highest fraction inhibited in the dose matrix, 72 h); higher = more inhibition; extreme values may be limits of the assay
quantity: combination Emax

>>> recorded_value("NC1(C(=O)N[C@@H](CCO)c2ccc(Cl)cc2)CCN(c2ncnc3[nH]ccc23)CC1 [Capivasertib] + Cn1cnc2c(F)c(Nc3ccc(Br)cc3Cl)c(C(=O)NOCCO)cc21 [Selumetinib] (first compound max 10 µM, 7x7, partner max 10 µM)")
0.492
>>> recorded_value("CC1(C)CCC(CN2CCN(c3ccc(C(=O)NS(=O)(=O)c4ccc(NCC5CCOCC5)c([N+](=O)[O-])c4)c(Oc4cnc5[nH]ccc5c4)c3)CC2)=C(c2ccc(Cl)cc2)C1 [Venetoclax] + C=CCn1c(=O)c2cnc(Nc3ccc(N4CCN(C)CC4)cc3)nc2n1-c1cccc(C(C)(C)O)n1 [AZD1775] (first compound max 1 µM, partner max 1 µM)")
0.973
>>> recorded_value("C=CCn1c(=O)c2cnc(Nc3ccc(N4CCN(C)CC4)cc3)nc2n1-c1cccc(C(C)(C)O)n1 [AZD1775] + C[C@@H]1COCCN1C2=NC(=NC(=C2)C3(CC3)[S@](=N)(=O)C)C4=C5C=CNC5=NC=C4 [AZD6738] (first compound max 1 µM, partner max 10 µM)")
1
>>> recorded_value("CN(CCO)CC[C@H](CSc1ccccc1)Nc1ccc(S(=O)(=O)NC(=O)c2ccc(N3CCC([C@@H](O)c4ccccc4-c4ccc(Cl)cc4)CC3)cc2)cc1S(=O)(=O)C(F)(F)F [AZD4320] + C[C@@H]1COCCN1C2=NC(=NC(=C2)C3(CC3)[S@](=N)(=O)C)C4=C5C=CNC5=NC=C4 [AZD6738] (first compound max 1 µM, 7x7, partner max 10 µM)")
1
>>> recorded_value("Cc1cc2ncnn2cc1Nc1ncc2c(n1)n(C1CCOCC1)c(=O)n2C [AZD7648] + C=CCn1c(=O)c2cnc(Nc3ccc(N4CCN(C)CC4)cc3)nc2n1-c1cccc(C(C)(C)O)n1 [AZD1775] (first compound max 10 µM, partner max 1 µM)")
0.873
>>> recorded_value("C[C@@H](c1ccc2nccn2c1)n1nnc2ncc(-c3cnn(C)c3)nc21 [Savolitinib] + Cc1c2c(nn1C)CSCc1cc(n(C)n1)CSc1cc(c3ccccc3c1)OCCCc1c(C(=O)O)n(C)c3c-2c(Cl)ccc13 [AZD5991] (first compound max 1 µM, 7x7, partner max 1 µM)")
0.192
>>> recorded_value("Cc1c2c(nn1C)CSCc1cc(n(C)n1)CSc1cc(c3ccccc3c1)OCCCc1c(C(=O)O)n(C)c3c-2c(Cl)ccc13 [AZD5991] + CCN(CCO)CCCOc1ccc2c(Nc3cc(CC(=O)Nc4cccc(F)c4)[nH]n3)ncnc2c1 [AZD2811] (first compound max 1 µM, 7x7, partner max 1 µM)")
0.842

---

Test system: CPC-N (Small Cell Lung Carcinoma)
Assay: combination Emax (second highest fraction inhibited in the dose matrix, 72 h); higher = more inhibition; extreme values may be limits of the assay
quantity: combination Emax

>>> recorded_value("C[C@@H](Oc1cc(-c2cnn(C3CCNCC3)c2)cnc1N)c1c(Cl)ccc(F)c1Cl [Crizotinib] + Cn1cnc2c(F)c(Nc3ccc(Br)cc3Cl)c(C(=O)NOCCO)cc21 [Selumetinib] (first compound max 10 µM, 7x7, partner max 10 µM)")
0.62
>>> recorded_value("CC1(C)CCC(CN2CCN(c3ccc(C(=O)NS(=O)(=O)c4ccc(NCC5CCOCC5)c([N+](=O)[O-])c4)c(Oc4cnc5[nH]ccc5c4)c3)CC2)=C(c2ccc(Cl)cc2)C1 [Venetoclax] + CN(C)CCCOc1ccc(-c2ccc3ncc4c(c3c2)n(C2CCOCC2)c(=O)n4C)cn1 [AZD0156] (first compound max 1 µM, 7x7, partner max 1 µM)")
0.78
>>> recorded_value("Cc1c2c(nn1C)CSCc1cc(n(C)n1)CSc1cc(c3ccccc3c1)OCCCc1c(C(=O)O)n(C)c3c-2c(Cl)ccc13 [AZD5991] + C[C@@H](Nc1cc(F)cc(F)c1)c1cc(C(=O)N(C)C)cc2c(=O)cc(N3CCOCC3)oc12 [AZD8186] (first compound max 1 µM, 7x7, partner max 3 µM)")
0.294

---

Tested on: ES6 (Ewing's Sarcoma)
Assay: combination Emax (second highest fraction inhibited in the dose matrix, 72 h); higher = more inhibition; extreme values may be limits of the assay
Examples of compounds with documented combination Emax follow.
quantity: combination Emax

>>> recorded_value("CN(CCO)CC[C@H](CSc1ccccc1)Nc1ccc(S(=O)(=O)NC(=O)c2ccc(N3CCC([C@@H](O)c4ccccc4-c4ccc(Cl)cc4)CC3)cc2)cc1S(=O)(=O)C(F)(F)F [AZD4320] + CN(C)CCCOc1ccc(-c2ccc3ncc4c(c3c2)n(C2CCOCC2)c(=O)n4C)cn1 [AZD0156] (first compound max 1 µM, 7x7, partner max 1 µM)")
0.188
>>> recorded_value("Cc1c2c(nn1C)CSCc1cc(n(C)n1)CSc1cc(c3ccccc3c1)OCCCc1c(C(=O)O)n(C)c3c-2c(Cl)ccc13 [AZD5991] + C[C@@H](Nc1cc(F)cc(F)c1)c1cc(C(=O)N(C)C)cc2c(=O)cc(N3CCOCC3)oc12 [AZD8186] (first compound max 1 µM, 7x7, partner max 3 µM)")
0.354
>>> recorded_value("C=CCn1c(=O)c2cnc(Nc3ccc(N4CCN(C)CC4)cc3)nc2n1-c1cccc(C(C)(C)O)n1 [AZD1775] + Nc1ccn([C@@H]2O[C@H](CO)[C@@H](O)C2(F)F)c(=O)n1 [Gemcitabine] (first compound max 1 µM, partner max 0.3 µM)")
0.556

---

Tested on: MOLP-8 (Plasma Cell Myeloma)
Test: Bliss excess, mean over the matrix (fraction); higher = more synergy
quantity: Bliss excess

>>> recorded_value("COc1cccc(OCCCN)c1-c1cc(Nc2cnc(C#N)cn2)n[nH]1 [Prexasertib] + C=CCn1c(=O)c2cnc(Nc3ccc(N4CCN(C)CC4)cc3)nc2n1-c1cccc(C(C)(C)O)n1 [AZD1775] (first compound max 1 µM, partner max 1 µM)")
0.0398
>>> recorded_value("NC1(C(=O)N[C@@H](CCO)c2ccc(Cl)cc2)CCN(c2ncnc3[nH]ccc23)CC1 [Capivasertib] + CC(=O)c1c(C)c2cnc(Nc3ccc(N4CCNCC4)cn3)nc2n(C2CCCC2)c1=O [Palbociclib] (first compound max 10 µM, 7x7, partner max 10 µM)")
0.0115
>>> recorded_value("CC(=O)Nc1cccc(-n2c(=O)n(C3CC3)c(=O)c3c(Nc4ccc(I)cc4F)n(C)c(=O)c(C)c32)c1 [Trametinib] + Cc1nc(-c2cn3c(n2)-c2ccc(-c4cnn(C(C)(C)C(N)=O)c4)cc2OCC3)n(C(C)C)n1 [Taselisib] (first compound max 1 µM, 7x7, partner max 10 µM)")
0.186
>>> recorded_value("CN(C)CCCOc1ccc(-c2ccc3ncc4c(c3c2)n(C2CCOCC2)c(=O)n4C)cn1 [AZD0156] + CCN(CCO)CCCOc1ccc2c(Nc3cc(CC(=O)Nc4cccc(F)c4)[nH]n3)ncnc2c1 [AZD2811] (first compound max 1 µM, 7x7, partner max 1 µM)")
-0.0308
>>> recorded_value("CC1(C)CCC(CN2CCN(c3ccc(C(=O)NS(=O)(=O)c4ccc(NCC5CCOCC5)c([N+](=O)[O-])c4)c(Oc4cnc5[nH]ccc5c4)c3)CC2)=C(c2ccc(Cl)cc2)C1 [Venetoclax] + C1CN(CCC1(C(=O)N[C@@H](CCO)C2=CC=C(C=C2)Cl)N)C3=NC=NC4=C3C=CN4 [Capivasertib] (first compound max 1 µM, 7x7, partner max 3 µM)")
-0.0114
>>> recorded_value("C=CCn1c(=O)c2cnc(Nc3ccc(N4CCN(C)CC4)cc3)nc2n1-c1cccc(C(C)(C)O)n1 [AZD1775] + C1CN(CCC1(C(=O)N[C@@H](CCO)C2=CC=C(C=C2)Cl)N)C3=NC=NC4=C3C=CN4 [Capivasertib] (first compound max 3 µM, partner max 3 µM)")
0.0286
>>> recorded_value("CC1(C)CCC(CN2CCN(c3ccc(C(=O)NS(=O)(=O)c4ccc(NCC5CCOCC5)c([N+](=O)[O-])c4)c(Oc4cnc5[nH]ccc5c4)c3)CC2)=C(c2ccc(Cl)cc2)C1 [Venetoclax] + C[C@@H]1COCCN1C2=NC(=NC(=C2)C3(CC3)[S@](=N)(=O)C)C4=C5C=CNC5=NC=C4 [AZD6738] (first compound max 1 µM, 7x7, partner max 10 µM)")
-0.0193

---

Parameter: Bliss excess. Scope: all listed entries.
System: TUR (Acute Myeloid Leukemia)
Test: Bliss excess, mean over the matrix (fraction); higher = more synergy
quantity: Bliss excess

>>> recorded_value("COc1cccc2c1C(=O)c1c(O)c3c(c(O)c1C2=O)C[C@@](O)(C(=O)CO)C[C@@H]3O[C@H]1C[C@H](N)[C@H](O)[C@H](C)O1 [Doxorubicin] + Cc1cc2ncnn2cc1Nc1ncc2c(n1)n(C1CCOCC1)c(=O)n2C [AZD7648] (first compound max 1 µM, 7x7, partner max 10 µM)")
0.119
>>> recorded_value("COc1nnc2ccc(N3CCC(c4ccc(OCCN5CCN(C)C(=O)[C@H]5C)cc4)CC3)nn12 [AZD5153] + Cc1c2c(nn1C)CSCc1cc(n(C)n1)CSc1cc(c3ccccc3c1)OCCCc1c(C(=O)O)n(C)c3c-2c(Cl)ccc13 [AZD5991] (first compound max 1 µM, 7x7, partner max 1 µM)")
0.0507
>>> recorded_value("Cc1c2c(nn1C)CSCc1cc(n(C)n1)CSc1cc(c3ccccc3c1)OCCCc1c(C(=O)O)n(C)c3c-2c(Cl)ccc13 [AZD5991] + CN(C)CCCOc1ccc(-c2ccc3ncc4c(c3c2)n(C2CCOCC2)c(=O)n4C)cn1 [AZD0156] (first compound max 1 µM, 7x7, partner max 1 µM)")
0.0377
